# Tested On: c-Met (Homo sapiens, UniProt P08581)
# Sequence (P08581 1058-1365): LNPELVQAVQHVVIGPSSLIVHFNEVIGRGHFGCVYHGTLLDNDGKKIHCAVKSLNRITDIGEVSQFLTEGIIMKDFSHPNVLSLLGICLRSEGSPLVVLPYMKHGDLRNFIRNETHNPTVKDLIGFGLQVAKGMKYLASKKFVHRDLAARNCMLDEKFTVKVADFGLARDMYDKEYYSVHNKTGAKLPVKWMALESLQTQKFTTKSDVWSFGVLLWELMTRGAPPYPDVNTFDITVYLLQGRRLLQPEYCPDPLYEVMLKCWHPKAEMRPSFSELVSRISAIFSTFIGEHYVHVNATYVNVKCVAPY
Endpoint: Ki (nM)

Reference set (4 entries):
INSERT INTO results (molecule, tested_on, numeric_readout) VALUES
  ('COc1cc2nccc(Oc3ccc(Nc4ncccc4C(=O)NCc4nccs4)cc3)c2cc1OC [Example 27]', 'c-Met (Homo sapiens, UniProt P08581)', 180),
  ('COc1cc2nccc(Oc3ccc(Nc4ncccc4C(=O)NCc4ncc[nH]4)cc3)c2cc1OC [Example 28]', 'c-Met (Homo sapiens, UniProt P08581)', 576),
  ('O=C(Nc1ccccc1)c1cccnc1Nc1ccc(Oc2ccnc(NC(=O)N3CCCC3)c2)c(F)c1 [Example 5]', 'c-Met (Homo sapiens, UniProt P08581)', 0.6),
  ('COc1ccccc1NC(=O)c1cccnc1Nc1ccc(Oc2ccnc3cc(OCc4ccccc4)c(OC)cc23)c(F)c1 [Example 10]', 'c-Met (Homo sapiens, UniProt P08581)', 40.5);

(A) COc1cc2c(Oc3ccc(Nc4ncccc4C(=O)NCc4ccccc4)cc3)ccnc2cc1OCCCN1CCOCC1 [Example 15]
(B) COc1cc2nccc(Oc3ccc(Nc4ncccc4C(=O)Nc4ncco4)cc3)c2cc1OC [Example 29]
Query :: Of A and B , which carries the smaller reported Ki figure? Kindly state the label of the option you pick.
Result :: A
(A: 4.8 nM, B: 196 nM)
